Each recorded value in this set is attributed to the supplement of paper PMC10567573.

assayProcedure: protein stability index of a GFP-peptide fusion (GPS, HEK-293T) (PSI 1-6); higher = more stable;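 further: 24-mer peptide tiles fused after GFP, lentivirally expressed, FACS-sorted into six equal bins by GFP/DsRed ratio, decoded by Illumina sequencing, PSI is the read-weighted mean bin number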
protocolConditions: treatment: DMSO; c terminus: a fixed tail appended
metric: protein stability index
// keep it numeric: no unit symbol after the value

                       sequencecode                   metric  numericreadout
0  PVIAAPSMWTRPQIKDFKEKIQQD [ACBD3]  protein stability index            4.59

Name the recorded protein stability index for FKWYLENVYPEMRVYNNTLTYGEV [GALNT9] .
2.38

Name the recorded protein stability index for MDTAMEVVKFVNFLLVNGFQTAID [TRAF3IP2] .
2.73

Name the recorded protein stability index for EAGASLVDQKLELNIVPRTKVVYL [PI4K2A] .
2.29

Name the recorded protein stability index for GRGLKSHAYIHSVQFSHHVFLNLH [USP39] .
2.84

Name the recorded protein stability index for GDIIRLEHKETSRNLHSHYHEAPM [POMT2] .
3.35

Name the recorded protein stability index for WGYIRYSGQYRELGGAIDFGAAYV [ATL3] .
2.56

Name the recorded protein stability index for WDLRMKLHDRGAQVIHPQEFRRWR [DNAAF3] .
2.77

Name the recorded protein stability index for SEMWDIFLVRLLMAMAVMLYYSNF [MFSD9] .
3.25

Name the recorded protein stability index for YEEEFDYETESETESEIESETDFE [GNAS] .
5.12

====

Reported protein stability index values are given for each entry in this list.
assayProcedure: protein stability index of a GFP-peptide fusion (GPS, HEK-293T) (PSI 1-6); higher = more stable
protocolConditions: treatment: DMSO; c terminus: a fixed tail appended
// keep it numeric: no unit symbol after the value

Known protein stability index results, listed for orientation:
>>> print(df.to_string())
                        sequencecode  numericreadout
0  LVLEQFLTILPTEIETWVREHCPE [ZNF449]             2.2
1   EEEEEGRFYYSEDDHGDECSYTDL [KCNA4]             5.4

// switching to the query sequence
Name the recorded protein stability index for ELQLSDLLKQGYNKTLLRLRLRKE [PKD2L1] .
2.39

====

Reported protein stability index values are given for each entry in this list.
assayProcedure: protein stability index of a GFP-peptide fusion (GPS, HEK-293T) (PSI 1-6); higher = more stable
protocolConditions: treatment: MLN4924 1 uM, 8 h; c terminus: a fixed tail appended
// keep it numeric: no unit symbol after the value

>>> print(df.to_string())
                          sequencecode                   metric  numericreadout
0    SPSKTDGKELAGTMDGEGTLFQTE [PBXIP1]  protein stability index            5.44
1     RLKFPIDYPYSPPAFRFLTKMWHP [CDC34]  protein stability index            2.09
2      GENSDCHRDSSQAIPITELTKSQV [ZNF8]  protein stability index            5.29
3  FENGQKAAVVHHFESFPAGSTLIF [TOR1AIP2]  protein stability index            2.12
4      YHRRHNPKTNEDFEFLYNALEFWR [IQUB]  protein stability index            2.61

Name the recorded protein stability index for MGSAADVRFSLGTTTHAPPGVHRR [PPFIA4] .
4.51

Name the recorded protein stability index for KPDKAVSIIECDMNVDFDAPLGYK [UFD1] .
4.21

Name the recorded protein stability index for SEMWDIFLVRLLMAMAVMLYYSNF [MFSD9] .
3.36
